# credit: paper PMC8306876

biological target: COX-2 (Homo sapiens); construct: purchased Cayman 701050; assay: Cyclooxygenase inhibition assay (Cayman kit No. 701050, COX peroxidase activity), COX-2; assay type: biochemical; settings: incubation for 2 min; mean (SD); n = 3
Sequence (P35354 18-604): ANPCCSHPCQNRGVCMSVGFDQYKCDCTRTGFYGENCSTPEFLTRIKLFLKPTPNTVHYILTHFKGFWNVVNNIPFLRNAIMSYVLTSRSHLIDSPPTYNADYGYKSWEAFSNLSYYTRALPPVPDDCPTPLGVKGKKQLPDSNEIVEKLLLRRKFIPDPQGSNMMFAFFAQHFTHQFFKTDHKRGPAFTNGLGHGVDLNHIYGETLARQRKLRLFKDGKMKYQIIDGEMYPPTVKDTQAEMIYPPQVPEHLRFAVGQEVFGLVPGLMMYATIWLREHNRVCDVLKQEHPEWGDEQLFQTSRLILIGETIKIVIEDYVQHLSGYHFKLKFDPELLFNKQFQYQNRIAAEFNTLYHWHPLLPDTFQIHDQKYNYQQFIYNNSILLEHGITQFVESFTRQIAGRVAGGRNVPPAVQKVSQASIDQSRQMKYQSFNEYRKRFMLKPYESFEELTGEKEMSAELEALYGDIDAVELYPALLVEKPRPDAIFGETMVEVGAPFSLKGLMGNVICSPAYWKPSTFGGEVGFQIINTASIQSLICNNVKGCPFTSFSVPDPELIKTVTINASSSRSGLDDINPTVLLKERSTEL
I'd appreciate it if you could label each record using IC50 and these ranges: low = under 50 µM, intermediate = from 50 µM up to 70 µM, high = 70 µM and over

Please review the following examples before continuing.
>  <COMPOUND_STRING>
O=C1c2ccccc2C(=O)N1CN1CCN(C(c2ccccc2)c2ccccc2)CC1

>  <CLASS_NAME>
high

$$$$
>  <COMPOUND_STRING>
O=C(CN1C(=O)c2ccccc2C1=O)N1CCN(c2ccccc2)CC1

>  <CLASS_NAME>
intermediate

$$$$
>  <COMPOUND_STRING>
O=C1c2ccccc2C(=O)N1CN1CCN(c2ccccc2)CC1

>  <CLASS_NAME>
high

$$$$
>  <COMPOUND_STRING>
COc1ccccc1N1CCN(C(=O)CN2C(=O)c3ccccc3C2=O)CC1

>  <CLASS_NAME>
intermediate

$$$$
>  <COMPOUND_STRING>
COc1cccc(N2CCN(C(=O)CN3C(=O)c4ccccc4C3=O)CC2)c1

>  <CLASS_NAME>
low

$$$$
>  <COMPOUND_STRING>
O=C(CN1C(=O)c2ccccc2C1=O)N1CCN(c2cccc(C(F)(F)F)c2)CC1

>  <CLASS_NAME>
low

$$$$

Attention now turns to another entry.
Which IC50 band matches COc1ccc(N2CCN(C(=O)CN3C(=O)c4ccccc4C3=O)CC2)cc1 ?
low

###

Here, each record is paired with measured DNA Damage data.
tested on: NHDF cells; experiment: DNA damage (chromatin relaxation, nucleus/halo diameter) after LPS preincubation; format: cell-based; conditions: ratio of cell nucleus diameter to halo diameter; 1 h with compound after 24 h with 50 µM LPS; (SD) n = 6
Marks after values point to notes of the source that are not given here.

>  <COMPOUND_STRING>
COc1cccc(N2CCN(C(=O)CN3C(=O)c4ccccc4C3=O)CC2)c1

>  <DNA Damage>
17.1 (0.04) *

$$$$
>  <COMPOUND_STRING>
COc1ccccc1N1CCN(C(=O)CN2C(=O)c3ccccc3C2=O)CC1

>  <DNA Damage>
18.7 (0.07) *

$$$$

Please turn your attention to the following entry.
Request: DNA Damage, test system NHDF cells, entry O=C(CN1C(=O)c2ccccc2C1=O)N1CCN(c2ccccc2)CC1
18.4 (0.07) *

###

Here, each record is paired with measured melting point data.

Examples with answers:
>  <COMPOUND>
O=C(CN1C(=O)c2ccccc2C1=O)N1CCN(c2cccc(C(F)(F)F)c2)CC1 [F]

>  <TEST_VALUE>
206 to 208 °C

$$$$
>  <COMPOUND>
O=C1c2ccccc2C(=O)N1CN1CCN(c2ccccc2)CC1 [A]

>  <TEST_VALUE>
160 to 161 °C

$$$$

Please turn your attention to the following entry.
Which melting point value belongs to COc1ccc(N2CCN(C(=O)CN3C(=O)c4ccccc4C3=O)CC2)cc1 [Compound I] ?
204 to 207 °C

###

test system: NHDF cells; assay: DNA damage (chromatin relaxation, nucleus/halo diameter) after LPS preincubation; assay type: cell-based; details: ratio of cell nucleus diameter to halo diameter; 1 h with compound after 24 h with 50 µM LPS; (SD) n = 6
Marks after values point to notes of the source that are not given here.
Here, each record is paired with measured DNA Damage data.

Examples with answers:
>  <COMPOUND_STRING>
COc1ccc(N2CCN(C(=O)CN3C(=O)c4ccccc4C3=O)CC2)cc1

>  <PROPERTY_MEASURED>
DNA Damage

>  <TEST_VALUE>
19.2 (0.08) *

$$$$
>  <COMPOUND_STRING>
COc1ccccc1N1CCN(CN2C(=O)c3ccccc3C2=O)CC1

>  <PROPERTY_MEASURED>
DNA Damage

>  <TEST_VALUE>
19.6 (0.09) *

$$$$
>  <COMPOUND_STRING>
O=C1c2ccccc2C(=O)N1CN1CCN(C(c2ccccc2)c2ccccc2)CC1

>  <PROPERTY_MEASURED>
DNA Damage

>  <TEST_VALUE>
17.3 (0.04) *

$$$$

Which DNA Damage value belongs to O=C(CN1C(=O)c2ccccc2C1=O)N1CCN(c2cccc(C(F)(F)F)c2)CC1 ?
20.1 (0.03) *

Request: O=C1c2ccccc2C(=O)N1CN1CCN(c2cccc(C(F)(F)F)c2)CC1
23.2 (0.07) *

Request: O=C1c2ccccc2C(=O)N1CN1CCN(c2ccccc2)CC1
15.2 (0.04) *
